Examples of compounds with documented IC50 follow.
assayed target: CXCR4 (Homo sapiens, UniProt P61073)
Sequence (P61073 whole entry): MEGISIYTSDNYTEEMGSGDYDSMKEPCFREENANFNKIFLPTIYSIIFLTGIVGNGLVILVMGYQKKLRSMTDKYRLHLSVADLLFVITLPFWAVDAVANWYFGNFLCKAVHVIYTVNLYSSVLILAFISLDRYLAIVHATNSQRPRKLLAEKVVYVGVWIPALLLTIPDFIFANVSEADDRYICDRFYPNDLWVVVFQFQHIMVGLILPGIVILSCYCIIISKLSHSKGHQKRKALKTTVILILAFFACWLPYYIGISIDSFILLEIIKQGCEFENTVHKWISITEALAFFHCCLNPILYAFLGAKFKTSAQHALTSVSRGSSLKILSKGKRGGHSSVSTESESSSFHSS
run description: HPB-ALL CXCR4 competitive binding assay (12G5 binding assay)
Set-up: HPB-ALL cells were maintained in RPMI-1640 (Gibico) supplemented with 10% FBS (Hyclone); endogenous in cells; host or cells: HPB-ALL cells
experimental conditions: HPB-ALL cells; competition with APC-conjugated anti-human CXCR4 clone 12G5 at its EC80; 4° C. for 3 h; FACS

compound: CC(C)N1CCN(c2cc(CN(C)C3CCCc4cccnc43)ncn2)CC1 (centres unmarked)
measure unit: nM
value prefix: =
IC50: 42
//
compound: CSc1nc(CN2CCCCC2c2ccccn2)cc(N2CCN(C)CC2)n1 (centres unmarked) [Compound C10]
measure unit: nM
value prefix: =
IC50: 248
//
compound: Cc1nc(CN(C)[C@H]2CCCc3cccnc32)cc(N2CCN(C)CC2)n1
measure unit: nM
value prefix: =
IC50: 9.8
//
compound: Cc1nc(CN(C)[C@H]2CCCc3cccnc32)cc(N2CCN3CCC[C@H]3C2)n1
measure unit: nM
value prefix: =
IC50: 27
//
compound: Cc1nc(CN(CCCC(=O)O)c2cccc3cccnc23)cc(N2CCN(C)CC2)n1
measure unit: nM
value prefix: =
IC50: 3820
//
compound: CC(C)Nc1nc(CN(C)C2CCCc3cccnc32)cc(N2CCN(C)CC2)n1 (centres unmarked)
measure unit: nM
value prefix: =
IC50: 210
//
compound: COc1nc(CN(C)C2CCCc3cccnc32)cc(N2CCN(C)CC2)n1 (centres unmarked)
measure unit: nM
value prefix: =
IC50: 23
//
compound: Cc1nc(CN(C)[C@H]2CCCc3cccnc32)cc(N2CCN(C3CC3)CC2)n1
measure unit: nM
value prefix: =
IC50: 58
//
compound: Cc1nc(CN(C)C2CCCc3cccnc32)cc(N2CCN(C)CC2)n1 (centres unmarked)
measure unit: nM
value prefix: =
IC50: 14
//
compound: Cc1nc(CN(C)[C@H]2CCCc3cccnc32)cc(NCCN2CCOCC2)n1
measure unit: nM
value prefix: =
IC50: 90
//
compound: Cc1nc(CN(C)[C@H]2CCCc3cccnc32)cc(NCCCN2CCOCC2)n1
measure unit: nM
value prefix: =
IC50: 54
//
compound: CCOc1nc(CN(C)C2CCCc3cccnc32)cc(N2CCN(C)CC2)n1 (centres unmarked)
measure unit: nM
value prefix: =
IC50: 65
//
compound: CCc1nc(CN(C)C2CCCc3cccnc32)cc(N2CCN(C)CC2)n1 (centres unmarked)
measure unit: nM
value prefix: =
IC50: 21
//
compound: CSc1nc([C@@H]2CCCN2[C@@H]2CCCc3cccnc32)cc(N2CCN(C)CC2)n1
measure unit: nM
value prefix: =
IC50: 2320
//
compound: Cc1nc(CN(C)C(C)c2ncccc2C)cc(N2CCN(C)CC2)n1 (centres unmarked)
measure unit: nM
value prefix: =
IC50: 33
//
compound: CN(Cc1cc(N2CCNCC2)ncn1)C1CCCc2cccnc21 (centres unmarked)
measure unit: nM
value prefix: =
IC50: 393
//
compound: CC(c1ccccn1)N(C)Cc1cc(N2CCN(C)CC2)ncn1 (centres unmarked)
measure unit: nM
value prefix: =
IC50: 229
//
compound: Cc1nc(CN(C)C2CC3(CC3)Cc3cccnc32)cc(N2CCN(C)CC2)n1 (centres unmarked)
measure unit: nM
value prefix: =
IC50: 161
//
compound: Cc1nc(CN(C)[C@H]2CCCc3cccnc32)cc(N2CCN(C)[C@H](C)C2)n1
measure unit: nM
value prefix: =
IC50: 13
//
compound: CN(C)C1CCN(c2cc(CN(C)C3CCCc4cccnc43)ncn2)CC1 (centres unmarked)
measure unit: nM
value prefix: =
IC50: 100
//
compound: CN1CCN(c2cc(N(C)CC3CCCc4cccnc43)ncn2)CC1 (centres unmarked)
measure unit: nM
value prefix: >
IC50: 10000
//
compound: Cc1ccc(C(C)N(C)Cc2cc(N3CCN(C)CC3)nc(C)n2)nc1 (centres unmarked)
measure unit: nM
value prefix: =
IC50: 44
//
compound: Cc1cccc([C@@H]2CCCN2Cc2cc(N3CCN(C)CC3)nc(C)n2)n1
measure unit: nM
value prefix: =
IC50: 2280
//
compound: Cc1nc(CN2CCC(C)C2c2ccccn2)cc(N2CCN(C)CC2)n1 (centres unmarked)
measure unit: nM
value prefix: =
IC50: 1200
//
compound: Cc1nc([C@H]2CCCN2[C@H]2CCCc3cccnc32)cc(N2CCN(C)CC2)n1
measure unit: nM
value prefix: =
IC50: 20
//
compound: Cc1nc(CN(C)C2c3ncccc3CCC23CC3)cc(N2CCN(C)CC2)n1 (centres unmarked)
measure unit: nM
value prefix: =
IC50: 97
//
compound: CSc1nc([C@@H](C)N(C)[C@H]2CCCc3cccnc32)cc(N2CCN(C)CC2)n1
measure unit: nM
value prefix: =
IC50: 47
//
compound: CCN1CCN(c2cc(CN(C)C3CCCc4cccnc43)ncn2)CC1 (centres unmarked)
measure unit: nM
value prefix: =
IC50: 34
//
compound: Cc1nc([C@@H]2CCCCN2[C@@H]2CCCc3cccnc32)cc(N2CCN(C)CC2)n1
measure unit: nM
value prefix: =
IC50: 6960
//
compound: CN1CCN(c2cc(CN(C)C3CCCc4cccnc43)nc(N3CCCC3)n2)CC1 (centres unmarked)
measure unit: nM
value prefix: =
IC50: 8000
//
compound: Cc1nc(CN(C)c2c(C)ccc3cccnc23)cc(N2CCN(C)CC2)n1
measure unit: nM
value prefix: =
IC50: 57
//
compound: Cc1nc(CN(C)C(C)(C)c2ccccn2)cc(N2CCN(C)CC2)n1
measure unit: nM
value prefix: =
IC50: 2290
//
compound: CCNc1nc(CN(C)C2CCCc3cccnc32)cc(N2CCN(C)CC2)n1 (centres unmarked)
measure unit: nM
value prefix: =
IC50: 67
//
compound: CN(Cc1cc(N2CCN(CCC#N)CC2)ncn1)C1CCCc2cccnc21 (centres unmarked)
measure unit: nM
value prefix: =
IC50: 242
//
compound: CCN1CCN(c2cc(CN(C)[C@H]3CCCc4cccnc43)nc(C)n2)CC1
measure unit: nM
value prefix: =
IC50: 11

---

assayed target: CXCR4 (Homo sapiens, UniProt P61073)
run description: FLIPR Tetra calcium mobilization assay
Type: cell-based
experimental conditions: Human CD4+ T-Cells; CXCL12 added; FLIPR Calcium 4 assay kit
Examples of compounds with documented IC50 follow.

compound: Cc1nc(CN(C)C2=C(F)CCc3cccnc32)cc(N2CCN(C)CC2)n1 [Compound D1]
IC50: 1.2 nM
//
compound: Cc1nc(CN(C)c2c(CO)ccc3cccnc23)cc(N2CCN(C)CC2)n1 [Compound D56]
IC50: 5.5 nM
//
compound: CN1CCN(c2cc(CN(C)c3cccc4cccnc34)nc(CO)n2)CC1 [Compound D54]
IC50: 7.2 nM
//
compound: COc1cccnc1[C@H](C)N(C)Cc1cc(N2CCN(C)CC2)nc(C)n1 [Compound A92]
IC50: 118 nM
//
compound: C[C@@H](c1ccccn1)N(C)Cc1cc(N2CCN3CCC[C@@H]3C2)nc(CO)n1 [Compound A82]
IC50: 2.5 nM
//
compound: Cc1nc(CN(C)[C@@H](C)c2ccccn2)c(CO)c(N2CCN(C)CC2)n1 [Compound A85]
IC50: 0.99 nM
//
compound: Cc1nc(CN(C)c2cncc3cccnc23)cc(N2CCN(C)CC2)n1 [Compound D22]
IC50: 965 nM
//
compound: Cc1nc(CN(C)c2ccc(S(C)(=O)=O)c3cccnc23)cc(N2CCN(C)CC2)n1 [Compound D43]
IC50: 3380 nM
//
compound: Cc1nc(CN(C)c2cc(C(F)(F)F)cc3cccnc23)cc(N2CCN(C)CC2)n1 [Compound D44]
IC50: 104 nM
//
compound: Cc1nc(CN(C)c2c(F)ccc3cccnc23)cc(N2CCN(C)CC2)n1 [Compound D17]
IC50: 74 nM
//
compound: CN1CCN(c2cc(CN(C)C3CCCc4cccnc43)ncn2)CC1 (stereo not shown) [Compound A1]
IC50: 4.5 nM
//
compound: Cc1nc(CN(C)c2cccc3cccnc23)cc(N2CCN(C)[C@H](C)C2)n1 [Compound D4]
IC50: 0.14 nM
//
compound: Cc1cccnc1[C@@H]1CCCN1Cc1cn2c(N3CCN(C)CC3)cccc2n1 [Compound C38]
IC50: 0.2 nM
//
compound: Cc1nc(CN2CCC[C@H]2c2ncccc2C)cc(N2CCC(N(C)C)CC2)n1 [Compound C37]
IC50: 12 nM
//
compound: Cc1cc(N(C)Cc2cc(N3CCN(C)CC3)nc(C)n2)c2ncccc2c1 [Compound D15]
IC50: 0.4 nM
//
compound: Cc1nc(CN(C)c2ccc(Br)c3cccnc23)cc(N2CCN(C)CC2)n1 [Compound D41]
IC50: 6.3 nM
//
compound: C[C@@H](c1ccccn1)N(C)Cc1cn2c(N3CCN4CCC[C@H]4C3)cccc2n1 [Compound A97]
IC50: 0.25 nM
//
compound: Cc1nc(CN(CCCCNC(=O)OC(C)(C)C)c2cccc3cccnc23)cc(N2CCN(C)CC2)n1 [Compound D27]
IC50: 1.7 nM
//
compound: Cc1nc(CN(C)c2c(C)ccc3cccnc23)cc(N2CCN(C)CC2)n1 [Compound D14]
IC50: 0.3 nM
//
compound: Cc1nc(CN(C)[C@@H](C)c2ccccn2)c(CO)c(N2CCN3CCC[C@H]3C2)n1 [Compound A87]
IC50: 0.18 nM
//
compound: Cc1nc(CN(C)c2c(S(C)(=O)=O)ccc3cccnc23)cc(N2CCN(C)CC2)n1 [Compound D51]
IC50: 2090 nM
//
compound: Cc1nc(CN(C)c2cc(F)cc3cccnc23)cc(N2CCN(C)CC2)n1 [Compound D18]
IC50: 0.79 nM
//
compound: COc1nc(CN(C)c2cccc3cccnc23)cc(N2CCN(C)CC2)n1 [Compound D13]
IC50: 2.9 nM
//
compound: Cc1nc(CN(C)C2CCOc3cccnc32)cc(N2CCN(C)CC2)n1 (stereo not shown) [Compound A90]
IC50: 0.046 nM
//
compound: Cc1nc(CN(C)c2c(Br)ccc3cccnc23)cc(N2CCN(C)CC2)n1 [Compound D49]
IC50: 4.5 nM
//
compound: C[C@@H](c1ccccn1)N(C)Cc1cn2c(N3CCN(C)CC3)cccc2n1 [Compound A95]
IC50: 0.13 nM
//
compound: Cc1nc(CN(C)[C@@H](C)c2ccccn2)c(CO)c(N2CCN(C)[C@@H](C)C2)n1 [Compound A88]
IC50: 0.3 nM
//
compound: Cc1nc(CN(C)[C@@H](C)c2ccccn2)cc(N2CCN3CCC[C@@H]3C2)n1 [Compound A78]
IC50: 0.062 nM
//
compound: Cc1nc(CN(C)[C@@H](C)c2ccccn2)cc(N2CCN3CCC[C@H]3C2)n1 [Compound A79]
IC50: 0.22 nM
//
compound: CSc1nc(CN(C)c2cccc3cccnc23)cc(N2CCN(C)CC2)n1 [Compound D12]
IC50: 0.61 nM
//
compound: C[C@@H](c1ccccn1)N(C)Cc1nc2cccc(N3CCN4CCC[C@H]4C3)n2c1CO [Compound A99]
IC50: 0.39 nM
//
compound: Cc1nc(CN(C)[C@@H](C)c2ccccn2)cc(N2CCN(C)CC2CO)n1 (stereo partly shown) [Compound A84]
IC50: 3 nM
//
compound: C[C@@H](c1ccccn1)N(C)Cc1cc(N2CCN(C)CC2)nc(N)n1 [Compound A83]
IC50: 0.93 nM
//
compound: Cc1nc(CN(C)c2ccc(NS(C)(=O)=O)c3cccnc23)cc(N2CCN(C)CC2)n1 [Compound D57]
IC50: 2880 nM
